Molecular target: UniProt:U5HK46
Sequence (U5HK46 entry or part of it): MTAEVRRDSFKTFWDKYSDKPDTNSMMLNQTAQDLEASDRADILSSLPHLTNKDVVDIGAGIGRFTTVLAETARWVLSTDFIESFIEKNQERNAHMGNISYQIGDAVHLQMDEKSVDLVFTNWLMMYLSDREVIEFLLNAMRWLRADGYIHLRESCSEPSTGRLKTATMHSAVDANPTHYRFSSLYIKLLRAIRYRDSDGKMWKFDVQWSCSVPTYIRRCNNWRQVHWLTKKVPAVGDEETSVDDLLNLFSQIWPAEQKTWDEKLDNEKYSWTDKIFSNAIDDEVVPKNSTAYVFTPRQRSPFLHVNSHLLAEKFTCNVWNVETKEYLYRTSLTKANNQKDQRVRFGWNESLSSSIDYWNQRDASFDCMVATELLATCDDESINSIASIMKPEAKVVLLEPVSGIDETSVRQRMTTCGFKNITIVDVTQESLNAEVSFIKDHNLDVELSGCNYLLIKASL
Experiment: biochemical
Assay type: biochemical
Conditions: read-out: Mean IC50 ± SEM, Enzyme HcPMT1
Method: The chemical compounds were obtained from the National Cancer Institute/Developmental Therapeutics Program Open Chemical Repository. […] Detection buffer (100 μL) containing fluorescence substrate was added into each reaction mixture. […] The plates were covered in aluminum foil and incubated at room temperature with agitation for 30 min, followed by reading the fluorescence at 380EX/520EM. […]
pIC50: −log10 of the molar value.

compound: COc1ccc(-c2c(C)c(C(=O)O)nc(-c3ccc4c(O)c(OC)c5c(c4n3)=NC(C)(C)N=5)c2N)c(O)c1OC
pIC50: 4.56
--
compound: CO[C@H]1/C=C/O[C@@]2(C)Oc3c(C)c(O)c4c(O)c(cc(O)c4c3C2=O)NC(=O)/C(C)=C\C=C\[C@H](C)[C@H](O)[C@@H](C)[C@@H](O)[C@@H](C)[C@H](OC(C)=O)[C@@H]1C
pIC50: 4.56
--
compound: CO[C@@H]1/C=C/O[C@@]2(C)Oc3c(C)c(O)c4c(c3C2=O)C(=N[C@@H]2CC[C@@H](O)O[C@H]2C)C=C(NC(=O)/C(C)=C\C(=O)[C@@H]2C[C@@H]2[C@H](O)[C@@H](C)[C@@H](O)[C@@H](C)[C@H](OC(C)=O)[C@@H]1C)C4=O
pIC50: 4.66
--
compound: COc1cc(C)c2c(c1C=O)Oc1c(c(C)c(O)c3c1C(O)OC3=O)OC2=O (stereo not drawn)
pIC50: 3.80
--
compound: O=c1c(O)cccc2cc(O)c(O)c(O)c12
pIC50: 4.69
--
compound: CO[C@@H]1/C=C\O[C@]2(C)Oc3c(C)c(O)c4c(O)c(c(CN(C)C)c(O)c4c3C2=O)NC(=O)/C(C)=C\C=C[C@@H](C)[C@@H](O)[C@H](C)[C@@H](O)[C@H](C)[C@H](OC(C)=O)[C@@H]1C
pIC50: 4.55
